Measured values drawn from paper PMC5540273 for this set.

- Tested on: RSK3(Kin.Dom.2-C-terminal)
- Construct: gene RPS6KA2
- study_conditions: concentration: 1 μM, replicates: in singlicate; n = 1;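 note: KINOMEscan kinase panel screen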
Label Not fulfilled if %Inh falls below 4%; label Fulfilled in every other case.

Worked examples, 5 compounds total:
# compound, label_class
measured = [
    ("COc1cccc(C2=C(Nc3cccc(C(=O)O)c3)C(=O)NC2=O)c1", "Not fulfilled"),
    ("CCCNC(=O)Nc1ccc(Oc2ncnc3ccn(C)c23)cc1", "Fulfilled"),
    ("COc1cc2ncn(-c3cc(OCc4ccc(S(C)(=O)=O)cc4)c(C(N)=O)s3)c2cc1OC", "Fulfilled"),
    ("CCC(=O)c1c(-c2ccccc2)c2cc(Cl)ccc2c(=O)n1Cc1ccc(C(=O)O)cc1", "Not fulfilled"),
    ("COc1cc(OC)cc(-c2cc3cnc(N)nc3nc2NC(=O)NC(C)(C)C)c1", "Not fulfilled"),
]

Req: Form field: %Inh at least 4%? Entry: Fc1cccc(CSc2nnc(-c3ccc4c(c3)CCO4)o2)c1
Resp: Fulfilled

Req: What about COc1cccc(C2=C(N(C)c3ccccc3)C(=O)NC2=O)c1 ?
Resp: Fulfilled

Req: What do you get for CCCC(=O)Nc1n[nH]c2ncc(-c3cccc4ccccc34)cc12 ?
Resp: Not fulfilled

###

- Tested on: PCTK3
- Construct: gene CDK18
- study_conditions: concentration: 1 μM, replicates: in singlicate; n = 1
Quick list: %Inh per entry.
Entry rule: numbers only, all in %.

# mol_smiles, %Inh, %
records = [
    ("Cc1nnc(-c2ccc(C)c(-c3ccc(C(=O)O)cc3)c2)o1", 2),
    ("COc1ccc(-c2cc3c(C)nc(N)nc3n([C@H]3CC[C@H](OCCO)CC3)c2=O)cn1", 0),
    ("COc1ccc(-n2cnc3c(N)ncnc32)cc1", 0),
]

// next entry
Req: Short answer please: %Inh, PCTK3, entry O=C(Nc1n[nH]c2cc(-c3ccccc3F)ccc12)C1CC1
Resp: 0

###

- Tested on: PAK4
- study_conditions: concentration: 1 μM, replicates: in singlicate; n = 1
quantity_name: %Inh
Returns: string containing the numeric result and its unit.

Take a look at these entries with their results.
# mol_smiles, %Inh
records = [
    ("COc1ccc(-c2cc3c(C)nc(N)nc3n([C@H]3CC[C@H](O)CC3)c2=O)cn1", "21%"),
    ("Fc1cccc(CSc2nnc(-c3ccc4c(c3)CCO4)o2)c1", "23%"),
    ("Nc1ncnc2c1ncn2-c1cccc(F)c1", "5%"),
]

Req: %Inh for COC(=O)c1c(-c2ccccc2)c2cc(Br)ccc2c(=O)n1Cc1ccc(S(C)(=O)=O)cc1 ?
Resp: 6%

Req: Field entry: CC(C)(C)c1ccc(C(=O)Nc2cn3cc(-c4ccccc4)ccc3n2)cc1
Resp: 1%

###

Measured %Inh, listed per entry for reference.
- Tested on: IGF1R
- study_conditions: concentration: 1 μM, replicates: in singlicate; n = 1
# output: bare number, implied unit %

# compound, target_under_test, experimental_result
data = [
    ("Cc1cccc(-c2nc(Nc3ccc4c(cnn4C)c3)c3ccccc3n2)n1 [GW876731]", "IGF1R", 0),
    ("Cl.NS(=O)(=O)c1cccc(Nc2cc(-c3ccc(F)cc3)n[nH]2)c1 [GW824645]", "IGF1R", 0),
    ("COc1cc2ncn(-c3cc(OCCCc4ccccc4)c(C(N)=O)s3)c2cc1OC [GSK205189]", "IGF1R", 13),
    ("COc1ccc(-c2cc3c(C)nc(N)nc3n([C@H]3CC[C@H](O)CC3)c2=O)cn1", "IGF1R", 0),
    ("CCC(=O)c1c(-c2ccccc2)c2cc(Cl)ccc2c(=O)n1Cc1cc(S(C)(=O)=O)n(CCC(C)(C)O)n1", "IGF1R", 4),
    ("COc1ccc(-c2cc3c(C)nc(N)nc3n([C@H]3CC[C@H](OCCO)CC3)c2=O)cn1", "IGF1R", 0),
    ("COc1ccc(-n2cnc3c(N)ncnc32)cc1 [SKF-97236]", "IGF1R", 19),
    ("CC(C)(C)c1ccc(C(=O)Nc2cn3cc(-c4ccccc4)ccc3n2)cc1", "IGF1R", 0),
]

Req: Consider the compound Nc1ncnc2c1ncn2-c1cccc2ccccc12 [SKF-97184] and give its measured %Inh.
Resp: 0

Req: Then this compound: COC(=O)c1c(-c2ccccc2)c2cc(Br)ccc2c(=O)n1Cc1ccc(NC(=O)CCC(=O)O)cc1
Resp: 0

Req: Next up: O=C(Nc1n[nH]c2cc(-c3ccccc3F)ccc12)C1CC1 [SB-733371]
Resp: 0

Req: Another: COc1cccc(C2=C(N(C)c3ccccc3)C(=O)NC2=O)c1 [SB-334865]
Resp: 12

Req: How about this compound: COc1ccc(Nc2nccc(N3CCC(NS(=O)(=O)c4ccc(NC(C)=O)cc4)C3)n2)cc1 (stereo not shown) [GSK1379729]
Resp: 22

###

- Test system: CSNK1D
- study_conditions: concentration: 1 μM, replicates: in singlicate; n = 1
Flag rule - %Inh less than 10% flags fulfilled; the remaining entries get not fulfilled.

Solved cases below.
# mol_smiles, label_class
data = [
    ("CN(C)c1cc(-c2ccc3c(N)n[nH]c3c2)nc(N)n1", "not fulfilled"),
    ("CCn1c(-c2ccoc2)nc2cnccc21", "not fulfilled"),
    ("CCn1c(-c2nonc2N)nc2ccccc21", "fulfilled"),
    ("Nc1ncnc2c1ncn2-c1ccc(Cl)cc1", "fulfilled"),
]

Now for a further compound.
Req: I wonder whether Cc1cc(Nc2nc(-c3cccc(C)n3)nc3ccccc23)ccn1 has %Inh below 10%. Can you tell?
Resp: not fulfilled

###

- Tested on: ASK2
- Construct: gene MAP3K6
- study_conditions: concentration: 1 μM, replicates: in singlicate; n = 1
quantity_name: %Inh (%)
Report as a plain number; the unit % is understood.

# mol_smiles, %Inh [%]
data = [
    ("Cc1nc(N(C)[C@H]2CN(C(=O)CC#N)CC[C@H]2C)c2cc[nH]c2n1", 0),
    ("CCS(=O)(=O)c1ccc(OC)c(Nc2ncc(-c3ccc(F)cc3)o2)c1.Cl", 0),
]

Req: Which value of %Inh has been reported for O=C(Nc1n[nH]c2nc(-c3ccccc3)c(Br)cc12)C1CC1 in the records?
Resp: 0

###

- Test system: PKN2
- study_conditions: concentration: 1 μM, replicates: in singlicate; n = 1
In this section we review reported %Inh values for a set of molecules.
Give a bare numeral; the unit % is implied.

Example entries begin here.
# molecule, target_under_test, %Inh (%)
measured = [
    ("CCn1c(-c2ccoc2)nc2cnccc21 [SB-733887]", "PKN2", 0),
    ("CCC(=O)c1c(-c2ccccc2)c2cc(Cl)ccc2c(=O)n1Cc1cc(S(C)(=O)=O)n(CC(F)F)n1", "PKN2", 0),
    ("Cl.c1ccc(Cn2cnc3cc(Nc4ncnc5ccccc45)ccc32)cc1 [GW272142]", "PKN2", 0),
    ("Cc1c(Cn2c(C)nn3c(=O)cc(N4CCO[C@H](C)C4)nc23)cccc1C(F)(F)F [GSK2373690]", "PKN2", 0),
]

Kindly review the next molecule as well.
Req: What value of %Inh has been recorded for this entry: COc1cc2ncn(-c3cc(OCCCc4ccccc4)c(C(N)=O)s3)c2cc1OC [GSK205189]
Resp: 16

###

- Test system: MAPKAPK5
- study_conditions: concentration: 1 μM, replicates: in singlicate; n = 1
Entries and their measured %Inh follow.
Expressed in %, but write only the number.

Below are worked cases with known answers.
# compound, target_under_test, %Inh [%]
rows = [
    ("Cc1nn2c(=O)cc(N3CCOCC3)nc2n1Cc1cccc(Cl)c1Cl [GSK2342769]", "MAPKAPK5", 0),
    ("CCS(=O)c1ccc(-c2coc3ccc(-c4nnc(C)o4)cc23)cc1 (centres unmarked)", "MAPKAPK5", 7),
    ("CN1C(=O)C(Nc2ccccc2)=C(c2ccccc2)C1=O [SB-300079]", "MAPKAPK5", 0),
    ("Nc1n[nH]c2ncc(-c3ccccc3)cc12 [SB-517081]", "MAPKAPK5", 0),
]

Could you now consider this next compound?
Req: %Inh lookup needed for COc1cc(Nc2ccnc3ccc(C(F)(F)F)cc23)cc(OC)c1OC [GW577382] , thanks.
Resp: 0

###

Quick list: %Inh per entry.
- Tested on: TBK1
- study_conditions: concentration: 1 μM, replicates: in singlicate; n = 1
Write the value in % as a bare number.

# compound, %Inh / %
rows = [
    ("CCC(=O)c1c(-c2ccccc2)c2cc(Cl)ccc2c(=O)n1Cc1cc(S(C)(=O)=O)n(CCC(C)(C)O)n1", 20),
    ("CCn1c(-c2nonc2N)nc2ccccc21 [SB-693162/GW549034]", 34),
    ("Fc1cccc(CSc2nnc(-c3ccc4c(c3)CCO4)o2)c1", 19),
]

Req: Any idea what %Inh was measured for O=C1NC(=O)C(c2ccccc2)=C1Nc1cccc(O)c1 [SB-390534] ?
Resp: 14

Req: // query: Nc1nc(-c2ccccc2F)c(-c2ccnc3ccccc23)s1 [GW560459]
Resp: 20

Req: Quick one: Cc1c(Cn2c(C)nn3c(=O)cc(N4CCO[C@H](C)C4)nc23)cccc1C(F)(F)F [GSK2373690]
Resp: 1

Req: Also check CCCNC(=O)Nc1ccc(Oc2ncnc3ccn(C)c23)cc1
Resp: 13

Req: Check C[C@@H]1CC[C@H](C(=O)NC2CCCCC2)CN1c1cc(-c2ccc3c(N)n[nH]c3c2)nc(N)n1 [GSK2291363] too.
Resp: 30

Req: // repeat for CCC(=O)c1c(-c2ccccc2)c2cc(Cl)ccc2c(=O)n1Cc1cc(S(C)(=O)=O)n(CC(F)F)n1 and report
Resp: 24
